Each recorded value in this set is attributed to PubChem BioAssay AID2060486.

Tested on: IGROV1 complex spheroids (HUVEC, MSC), viability % test/control
Test: Anticancer human tumor IGROV1 cell line growth inhibition [GQUAD];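 note: spheroids exposed to compounds for 7 days before readout; 100% = DMSO vehicle control viability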
Conditions: second compound 10 µM; first compound 10 µM; active compounds read low
# viability, T/C annotations
Express it in %; write the number only.

Example results:
# Compound, Unit, viability, T/C
records = [
    ("O=c1[nH]cc(F)c(=O)[nH]1 + CN(C)c1ccc(Nc2c3ccc(NC(=O)CCN4CCCC4)cc3nc3cc(NC(=O)CCN4CCCC4)ccc23)cc1", "%", 16.4),
    ("Cc1cccc(N(C)C(=O)C2C(O)CCN2c2nc(C)cc(C(F)(F)F)c2C#N)c1 (stereo unspecified) + Cc1[nH]c2ccc(F)cc2c1-c1nc2c3cccnc3c3ncccc3c2[nH]1", "%", 3.25),
    ("COc1cccc2c1C(=O)c1c(O)c3c(c(O)c1C2=O)CC(O)(C(=O)CO)CC3OC1CC(N)C(O)C(C)O1 (stereo unspecified) + CN(C)c1ccc(Nc2c3ccc(NC(=O)CCN4CCCC4)cc3nc3cc(NC(=O)CCN4CCCC4)ccc23)cc1", "%", 1.15),
    ("Nc1ccn(C2OC(CO)C(O)C2(F)F)c(=O)n1 (stereo unspecified) + Cc1[nH]c2ccc(F)cc2c1-c1nc2c3cccnc3c3ncccc3c2[nH]1", "%", 2.86),
    ("C#Cc1c(F)ccc2cc(O)cc(-c3ncc4c(N5CC6CCC(C5)N6)nc(OCC56CCCN5CC(F)C6)nc4c3F)c12 (stereo unspecified) + Cc1cnc(CNC(=O)c2c(=O)c3ccc(N4CCCN(C)CC4)nc3n3c2sc2ccccc23)cn1", "%", 7.64),
    ("CC1COCCN1c1cc(-c2ccnn2C)c2ccnc(-c3ccn[nH]3)c2n1 (stereo unspecified) + Cc1[nH]c2ccc(F)cc2c1-c1nc2c3cccnc3c3ncccc3c2[nH]1", "%", 2.3),
    ("COc1ccc([C@@H](O)c2cc(-c3ncnc4cc(N5CCOCC5)ccc34)c(F)cc2Cl)nn1 + Cc1cnc(CNC(=O)c2c(=O)c3ccc(N4CCCN(C)CC4)nc3n3c2sc2ccccc23)cn1", "%", 1.32),
    ("O=C(NO)c1cnc(N2CCN(S(=O)(=O)c3ccc4ccccc4c3)CC2)nc1 + Cc1[nH]c2ccc(F)cc2c1-c1nc2c3cccnc3c3ncccc3c2[nH]1", "%", 0.1),
    ("CC1COCCN1c1cc(-c2ccnn2C)c2ccnc(-c3ccn[nH]3)c2n1 (stereo unspecified) + CN(C)c1ccc(Nc2c3ccc(NC(=O)CCN4CCCC4)cc3nc3cc(NC(=O)CCN4CCCC4)ccc23)cc1", "%", 3.72),
    ("CC(=O)O[C@H]1C(=O)[C@@]2(C)[C@H]([C@H](OC(=O)c3ccccc3)[C@]3(O)C[C@H](OC(=O)[C@H](O)[C@@H](NC(=O)c4ccccc4)c4ccccc4)C(C)=C1C3(C)C)[C@]1(OC(C)=O)CO[C@@H]1C[C@@H]2O + CN(C)c1ccc(Nc2c3ccc(NC(=O)CCN4CCCC4)cc3nc3cc(NC(=O)CCN4CCCC4)ccc23)cc1", "%", 4.57),
]

Entry under test: CC(C)n1c(=O)n(C)c2cnc3cc(F)c(-c4ccc(OCCCN5CCCCC5)nc4)cc3c21 + Cc1[nH]c2ccc(F)cc2c1-c1nc2c3cccnc3c3ncccc3c2[nH]1 . Its viability, T/C was 2.35
